species: Homo sapiens; assay: Selectivity ratio of Ki for human 5-HT1A receptor to Ki for human 5-HT7 receptor
Labelling field: enter 1 if recorded Ratio Ki is less than 5. Enter 0 if it equals or exceeds that cut-off.

Query :: Report whether reported Ratio Ki is lower than 5 (strictly) for O=C([C@@H]1CCCN1C(=O)CCCCN1CCN(c2ccccc2-c2ccccc2)CC1)N1CCCCC1
Result :: 0

Query :: Lab log: compare recorded Ratio Ki with 5; is it strictly lower for CC(C)c1ccccc1N1CCN(CCCCCCC(=O)N2CCC[C@H]2C(=O)N2CCCCC2)CC1 ?
Result :: 1

Query :: Threshold test, Ratio Ki < 5: NC(=O)[C@@H]1Cc2ccccc2CN1C(=O)CCCCN1CCN(c2ccccc2-c2ccccc2)CC1
Result :: 0

Query :: Determine whether this compound shows Ratio Ki lower than 5 (ties excluded): O=C([C@@H]1CCCN1C(=O)CCCCCN1CCN(c2ccccc2-c2ccccc2)CC1)N1CCCCC1
Result :: 1

Query :: Input O=C([C@@H]1Cc2ccccc2CN1C(=O)CCCCCCN1CCN(c2ccccc2-c2ccccc2)CC1)N1CCOCC1 ; condition: Ratio Ki strictly below 5. Does it hold?
Result :: 1

Query :: Regarding CSc1ccccc1N1CCN(CCCCCC(=O)N2Cc3ccccc3C[C@H]2C(N)=O)CC1 , kindly confirm whether its Ratio Ki is beneath 5.
Result :: 1

Query :: Strictly below 5 in Ratio Ki? NC(=O)[C@@H]1CCCN1C(=O)CCCCCCN1CCN(c2ccccc2-c2ccccc2)CC1
Result :: 1

Query :: Dear reviewer, please state whether NC(=O)[C@@H]1Cc2ccccc2CN1C(=O)CCCCCCN1CCN(c2ccccc2-c2ccccc2)CC1 has Ratio Ki strictly beneath 5.
Result :: 0

* * *

Assign pKi to each entry below.
target: 5-hydroxytryptamine receptor 2A (Homo sapiens) (UniProt P28223); test: Displacement of [3H]-ketanserin from human 5HT2A receptor expressed in HEK293 cells after 1 hr
Sequence (P28223 whole entry, looked up): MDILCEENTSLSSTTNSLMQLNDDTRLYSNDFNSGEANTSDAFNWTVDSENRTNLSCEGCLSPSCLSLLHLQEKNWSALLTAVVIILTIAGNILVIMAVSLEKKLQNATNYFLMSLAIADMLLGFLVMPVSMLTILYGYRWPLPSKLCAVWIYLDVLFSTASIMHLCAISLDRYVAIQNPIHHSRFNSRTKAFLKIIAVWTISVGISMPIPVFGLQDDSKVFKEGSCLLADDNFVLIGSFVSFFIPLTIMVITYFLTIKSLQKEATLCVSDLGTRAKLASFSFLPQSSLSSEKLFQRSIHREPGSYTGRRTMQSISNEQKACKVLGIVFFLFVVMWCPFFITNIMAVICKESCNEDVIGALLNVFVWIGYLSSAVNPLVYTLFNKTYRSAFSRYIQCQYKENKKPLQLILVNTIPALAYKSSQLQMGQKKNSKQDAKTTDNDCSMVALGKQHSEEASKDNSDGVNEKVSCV
Quick note: pKi means taking -log10 of the concentration in moles per liter.

Query :: # pKi lookup, item NC(=O)[C@@H]1Cc2ccccc2CN1C(=O)CCCCN1CCN(c2ccccc2-c2ccccc2)CC1
Result :: 6.23

Query :: Give the measured pKi of CC(C)c1ccccc1N1CCN(CCCCCCC(=O)N2CCC[C@H]2C(=O)N2CCCCC2)CC1 .
Result :: 6.22

Query :: Would you kindly share the measured pKi for CSc1ccccc1N1CCN(CCCCCC(=O)N2Cc3ccccc3C[C@H]2C(N)=O)CC1 ?
Result :: 6.55

* * *

Consider the following molecules; for each one, report its Ki.
Give just the numeric value; nM need not be written.

Query :: Item: O=C([C@@H]1Cc2ccccc2CN1C(=O)CCCCCN1CCN(c2ccccc2-c2ccccc2)CC1)N1CCCCC1 Test system: 5-hydroxytryptamine receptor 7 (Homo sapiens) Read-out: Ki Value: ?
Result :: 9

Query :: Quick check: Ki on 5-hydroxytryptamine receptor 7 (Homo sapiens), item O=C([C@@H]1Cc2ccccc2CN1C(=O)CCCCN1CCN(c2ccccc2-c2ccccc2)CC1)N1CCCCC1 ?
Result :: 10

Query :: For the record NC(=O)[C@@H]1Cc2ccccc2CN1C(=O)CCCCN1CCN(c2ccccc2-c2ccccc2)CC1 , what value of Ki is listed for 5-hydroxytryptamine receptor 7 (Homo sapiens)?
Result :: 12

Query :: Form entry - test system: 5-hydroxytryptamine receptor 7 (Homo sapiens); read-out: Ki; molecule: NC(=O)[C@@H]1CCCN1C(=O)CCCCCCN1CCN(c2ccccc2-c2ccccc2)CC1
Sequence (P34969 whole entry): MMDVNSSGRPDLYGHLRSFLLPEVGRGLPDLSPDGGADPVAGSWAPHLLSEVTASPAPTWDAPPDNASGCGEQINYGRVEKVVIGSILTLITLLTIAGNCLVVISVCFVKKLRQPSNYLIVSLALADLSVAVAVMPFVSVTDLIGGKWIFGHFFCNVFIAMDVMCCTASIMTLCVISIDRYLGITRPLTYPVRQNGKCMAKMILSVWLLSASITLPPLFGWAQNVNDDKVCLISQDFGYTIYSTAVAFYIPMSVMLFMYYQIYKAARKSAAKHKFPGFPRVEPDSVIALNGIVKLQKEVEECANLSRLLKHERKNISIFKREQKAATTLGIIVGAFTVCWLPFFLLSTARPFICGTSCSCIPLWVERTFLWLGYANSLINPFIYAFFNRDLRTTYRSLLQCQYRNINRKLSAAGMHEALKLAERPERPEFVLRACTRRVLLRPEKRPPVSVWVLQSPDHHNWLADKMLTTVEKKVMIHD
Result :: 18

Query :: State its Ki on 5-hydroxytryptamine receptor 7 (Homo sapiens): CC(C)c1ccccc1N1CCN(CCCCCCC(=O)N2CCC[C@H]2C(N)=O)CC1
Result :: 116

Query :: Param readout= Ki; system= 5-hydroxytryptamine receptor 7 (Homo sapiens); entry= NC(=O)[C@@H]1Cc2ccccc2CN1C(=O)CCCCCN1CCN(c2ccccc2-c2ccccc2)CC1 ; returns value.
Result :: 10

Query :: Provide value of Ki for this record tested with 5-hydroxytryptamine receptor 7 (Homo sapiens): NC(=O)[C@@H]1Cc2ccccc2CN1C(=O)CCCCCCN1CCN(c2ccccc2-c2ccccc2)CC1
Result :: 11

* * *

organism: Homo sapiens; assay: Selectivity ratio of Ki for human 5-HT7 receptor to Ki for human 5-HT1A receptor
property: Ratio Ki

Query :: Could you tell me which Ratio Ki is on file for CC(C)c1ccccc1N1CCN(CCCCCCC(=O)N2Cc3ccccc3C[C@H]2C(N)=O)CC1 ?
Result :: 2

Query :: Which Ratio Ki reading was recorded for the molecule O=C([C@@H]1CCCN1C(=O)CCCCN1CCN(c2ccccc2-c2ccccc2)CC1)N1CCCCC1 ?
Result :: < 1

Query :: // returns reported Ratio Ki for input CC(C)c1ccccc1N1CCN(CCCCC(=O)N2Cc3ccccc3C[C@H]2C(N)=O)CC1
Result :: < 1

Query :: What Ratio Ki value was documented for this molecule, O=C([C@@H]1CCCN1C(=O)CCCCCCN1CCN(c2ccccc2-c2ccccc2)CC1)N1CCCCC1 ?
Result :: 2

Query :: Data request, read-out Ratio Ki, for CC(C)c1ccccc1N1CCN(CCCCCCC(=O)N2CCC[C@H]2C(=O)N2CCOCC2)CC1
Result :: 8

Query :: Which Ratio Ki reading was recorded for the molecule CC(C)c1ccccc1N1CCN(CCCCCC(=O)N2Cc3ccccc3C[C@H]2C(=O)N2CCCCC2)CC1 ?
Result :: 3

Query :: What value of Ratio Ki has been reported for the following molecule? CC(C)c1ccccc1N1CCN(CCCCCCC(=O)N2CCC[C@H]2C(=O)N2CCCCC2)CC1
Result :: 77

Query :: Entry under review: O=C([C@@H]1Cc2ccccc2CN1C(=O)CCCCN1CCN(c2ccccc2-c2ccccc2)CC1)N1CCCCC1 . Reported Ratio Ki?
Result :: < 1

Query :: GET /values?readout=Ratio Ki&item= O=C([C@@H]1CCCN1C(=O)CCCCCCN1CCN(c2ccccc2-c2ccccc2)CC1)N1CCOCC1
Result :: < 1

Query :: I'd like to know its Ratio Ki. The molecule in question is NC(=O)[C@@H]1Cc2ccccc2CN1C(=O)CCCCN1CCN(c2ccccc2-c2ccccc2)CC1
Result :: < 1

Query :: Bench note: what Ratio Ki did NC(=O)[C@@H]1Cc2ccccc2CN1C(=O)CCCCCCN1CCN(c2ccccc2-c2ccccc2)CC1 show?
Result :: < 1

Query :: If you can, please state the reported Ratio Ki value of CSc1ccccc1N1CCN(CCCCCC(=O)N2Cc3ccccc3C[C@H]2C(N)=O)CC1 .
Result :: > 78

Query :: Value lookup for Ratio Ki; key = O=C([C@@H]1Cc2ccccc2CN1C(=O)CCCCCCN1CCN(c2ccccc2-c2ccccc2)CC1)N1CCCCC1
Result :: < 1

Query :: Item NC(=O)[C@@H]1Cc2ccccc2CN1C(=O)CCCCCN1CCN(c2ccccc2-c2ccccc2)CC1 has what recorded Ratio Ki?
Result :: < 1

Query :: Requested field: Ratio Ki. Item: O=C([C@@H]1Cc2ccccc2CN1C(=O)CCCCCN1CCN(c2ccccc2-c2ccccc2)CC1)N1CCCCC1
Result :: < 1

Query :: Please look up its Ratio Ki: CC(C)c1ccccc1N1CCN(CCCCCCC(=O)N2Cc3ccccc3C[C@H]2C(=O)N2CCCCC2)CC1
Result :: 2

Query :: Which Ratio Ki is reported for this molecule? NC(=O)[C@@H]1CCCN1C(=O)CCCCCCN1CCN(c2ccccc2-c2ccccc2)CC1
Result :: < 1

Query :: Need Ratio Ki, item O=C([C@@H]1Cc2ccccc2CN1C(=O)CCCCN1CCN(c2ccccc2-c2ccccc2)CC1)N1CCOCC1
Result :: < 1

* * *

organism: Homo sapiens; test: Selectivity ratio of Ki for human 5-HT1A receptor to Ki for human 5-HT7 receptor
property: Ratio Ki

Query :: # query: Ratio Ki of entry O=C([C@@H]1CCCN1C(=O)CCCCCCN1CCN(c2ccccc2-c2ccccc2)CC1)N1CCCCC1
Result :: < 1

Query :: Please give the measured Ratio Ki for this compound: O=C([C@@H]1Cc2ccccc2CN1C(=O)CCCCCN1CCN(c2ccccc2-c2ccccc2)CC1)N1CCCCC1
Result :: 2

Query :: Could you share which Ratio Ki value was measured for CC(C)c1ccccc1N1CCN(CCCCCCC(=O)N2Cc3ccccc3C[C@H]2C(=O)N2CCCCC2)CC1 ?
Result :: < 1

* * *

Give Ratio Ki for every item shown.
species: Homo sapiens; assay: Selectivity ratio of Ki for human 5-HT1A receptor to Ki for human 5-HT7 receptor

Query :: Reported Ratio Ki for O=C([C@@H]1Cc2ccccc2CN1C(=O)CCCCN1CCN(c2ccccc2-c2ccccc2)CC1)N1CCOCC1 : what is it?
Result :: 4

Query :: # query: Ratio Ki of entry CC(C)c1ccccc1N1CCN(CCCCCCC(=O)N2Cc3ccccc3C[C@H]2C(N)=O)CC1
Result :: < 1

Query :: Recorded Ratio Ki for CC(C)c1ccccc1N1CCN(CCCCC(=O)N2Cc3ccccc3C[C@H]2C(N)=O)CC1 , please?
Result :: 1

Query :: Which Ratio Ki value belongs to NC(=O)[C@@H]1Cc2ccccc2CN1C(=O)CCCCCN1CCN(c2ccccc2-c2ccccc2)CC1 ?
Result :: 3

Query :: # get_value(readout='Ratio Ki', item= CC(C)c1ccccc1N1CCN(CCCCCCC(=O)N2CCC[C@H]2C(=O)N2CCOCC2)CC1 )
Result :: < 1

Query :: Bench note: what Ratio Ki did O=C([C@@H]1Cc2ccccc2CN1C(=O)CCCCCCN1CCN(c2ccccc2-c2ccccc2)CC1)N1CCCCC1 show?
Result :: 3

Query :: Field request: Ratio Ki | item: O=C([C@@H]1CCCN1C(=O)CCCCCCN1CCN(c2ccccc2-c2ccccc2)CC1)N1CCOCC1
Result :: 1

Query :: Look up Ratio Ki for this compound: CC(C)c1ccccc1N1CCN(CCCCCC(=O)N2Cc3ccccc3C[C@H]2C(=O)N2CCCCC2)CC1
Result :: < 1

Query :: What value of Ratio Ki has been reported for the following compound? CC(C)c1ccccc1N1CCN(CCCCCCC(=O)N2CCC[C@H]2C(N)=O)CC1
Result :: < 1
